Test system: SR leukemia
Test: NCI-60 one-dose screen, 48 h (100 = growth as untreated, 0 = no growth, -100 = all killed)
Settings: 10 µM
About 83,000 compounds went through this panel and 20% of them were active in at least one assay; those are over-represented in the sample as a whole. Active and inactive are the calls of the source. Rule for the calls: active = growth percent below 10; inactive = the rest.
parameter: growth

Examples with answers:
compound	testTarget	growth
CC1(C)N=C(N)N=C(N)N1c1ccc(CCCCc2ccc(S(=O)(=O)F)cc2)c(Cl)c1	SR leukemia	33.4% (inactive)
CO[C@@H](c1ccccc1Cl)[C@H](C)OC(N)=O	SR leukemia	111% (inactive)
CC(=O)C1CCC2C3CC=C4CC(OC(=O)Cc5ccc(N(CCCl)CCCl)cc5)CCC4(C)C3CCC12C (stereo not given)	SR leukemia	52.7% (inactive)
Cc1cc(NC(=O)/C=C/c2ccc([N+](=O)[O-])cc2)ccc1S(=O)(=O)F	SR leukemia	81.3% (inactive)
COc1cc[c]([Hg][Cl])cc1	SR leukemia	-10.3% (active)

The compound identified as O=[N+]([O-])c1cccc([As]=[As]c2cccc([N+](=O)[O-])c2)c1 (stereo not given) registered its growth at -32% (active)

The compound identified as N#CC1=C(N)Oc2cc3c(cc2C1c1cccs1)OCO3 (stereo not given) registered its growth at 16.2% (inactive)

The compound identified as O=S(=O)(Cl)c1ccccc1 (tested in a mixture with another compound) registered its growth at 104% (inactive)

The compound identified as CCOP(=O)(OCC)Oc1ccc(Sc2ccc(OP(=O)(OCC)OCC)cc2)cc1 registered its growth at 94.2% (inactive)

The compound identified as CC1(C)N=C(N)N=C(N)N1c1ccc(CCC(=O)Nc2cccc(S(=O)(=O)F)c2)cc1 registered its growth at 35.6% (inactive)

The compound identified as O=C(O)c1[nH]c(=O)[nH]c(=O)c1F registered its growth at 91.7% (inactive)

The compound identified as CC1(C)N=C(N)N=C(N)N1c1ccc(CCCCc2ccc(S(=O)(=O)F)cc2)cc1 registered its growth at 38% (inactive)

The compound identified as CC1(CF)NC(=O)NC1=O (stereo not given) registered its growth at 115% (inactive)

The compound identified as O=C1C=CC(=O)C2C1C1(Cl)C(Cl)=C(Cl)C2(Cl)C1(Cl)Cl (stereo not given) registered its growth at 36.5% (inactive)

The compound identified as CO[C@@H]1[C@H](OC(=O)NC(=O)CCl)CC[C@]2(CO2)[C@H]1[C@@]1(C)O[C@@H]1CC=C(C)C registered its growth at 21.5% (inactive)

The compound identified as COC[CH2][Hg][C]#[C][Hg][CH2]COC registered its growth at 8.96% (active)

The compound identified as COc1cc(C2CC(=O)Nc3nc(N)[se]c32)cc(OC)c1OC (stereo not given) registered its growth at 65.8% (inactive)

The compound identified as CCCCCCCCCCOc1ccc(C(=O)Oc2ccc(CSP3(=O)OCC4OC(n5ccc(=O)[nH]c5=O)C(F)C4OP(=O)(O)OCC4OC(n5cnc6c(N)ncnc65)C(F)C4O3)cc2)cc1 (stereo not given) registered its growth at 25.4% (inactive)

The compound identified as C[As](=O)(O)c1ccc(C(=O)O)cc1 registered its growth at 118% (inactive)
